tested on: Candida albicans; assay: Antifungal activity against Candida albicans cgmcc2.2086 measured after 48 hrs in presence of NH4Cl by broth microdilution method; format: functional; settings: cgmcc2.2086, 48 h
As shown below, each of these substances has a reported MIC95 value.
Answer with a number only, understood to be in µM.

[[record]]
substance = "H-AARIILRFRFR-NH2"
value_type = "MIC95"
reported = 4

[[record]]
substance = "H-AARIILRYRFR-NH2"
value_type = "MIC95"
reported = 64

[[record]]
substance = "H-AARIILRLRFR-NH2"
value_type = "MIC95"
reported = 8

[[record]]
substance = "H-AARIILRARFR-NH2"
value_type = "MIC95"
reported = 16

[[record]]
substance = "H-AARIILRWRFR-NH2"
value_type = "MIC95"
reported = 8

[[record]]
substance = "H-AARIILRWFRR-NH2"
value_type = "MIC95"
reported = 8


# lookup: MIC95 of `H-AARIILRIRFR-NH2`
8

# lookup: MIC95 of `H-AARRILRWIFR-NH2`
8

----------
experiment: Therapeutic index, ratio of MHC10 for hemolytic activity in human RBC to MIC95 against Staphylococcus aureus ATCC 29213; assay type: toxicity; conditions: human red blood cells (erythrocytes), read-out: TI
Value Type: selectivity ratio

The cases that follow already have their selectivity ratio on record.
[[record]]
substance = "H-AARIILRDRFR-NH2"
reported = 2

[[record]]
substance = "H-AAKIILNPKFR-NH2"
reported = 2

[[record]]
substance = "H-AARIILRYRFR-NH2"
reported = 64


# lookup: selectivity ratio of `H-AARRILRWIFR-NH2`
45.2

# lookup: selectivity ratio of `H-AARIILRPRFR-NH2`
2

# lookup: selectivity ratio of `H-AARIILRRRFR-NH2`
13.4

----------
assay: Therapeutic index, ratio of MHC10 for hemolytic activity in human RBC to MIC95 against Staphylococcus aureus ATCC 29213; assay type: toxicity; settings: human red blood cells (erythrocytes), read-out: TI
Value Type: selectivity ratio
Answer with a number only.

[[record]]
substance = "H-AARIILRTRFR-NH2"
reported = 16

[[record]]
substance = "H-AARIILRGRFR-NH2"
reported = 26.9

[[record]]
substance = "H-AARIILRWRFR-NH2"
reported = 215

[[record]]
substance = "H-AARIILRWFRR-NH2"
reported = 53.8

[[record]]
substance = "H-AARIILRLRFR-NH2"
reported = 128


# lookup: selectivity ratio of `H-AARIILRIRFR-NH2`
64

----------
system: Staphylococcus aureus; assay: Antibacterial activity against Staphylococcus aureus ATCC 29213 measured after 18 to 24 hrs in presence of FeCl3; assay type: functional
As shown below, each of these substances has a reported MIC95 value.
Answer with a number only, understood to be in µM.

The cases that follow already have their MIC95 on record.
[[record]]
substance = "H-AARIILRARFR-NH2"
assay_target = "Staphylococcus aureus"
value_type = "MIC95"
reported = 4

[[record]]
substance = "H-AARIILRIRFR-NH2"
assay_target = "Staphylococcus aureus"
value_type = "MIC95"
reported = 2

[[record]]
substance = "H-AARIILRRRFR-NH2"
assay_target = "Staphylococcus aureus"
value_type = "MIC95"
reported = 16

[[record]]
substance = "H-AARIILRWFRR-NH2"
assay_target = "Staphylococcus aureus"
value_type = "MIC95"
reported = 4

[[record]]
substance = "H-AARIILRLRFR-NH2"
assay_target = "Staphylococcus aureus"
value_type = "MIC95"
reported = 4


# lookup: MIC95 of `H-AARIILRTRFR-NH2`
16

# lookup: MIC95 of `H-AARIILRFRFR-NH2`
4

# lookup: MIC95 of `H-AARIILRWRFR-NH2`
1

# lookup: MIC95 of `H-AARIILRGRFR-NH2`
8

# lookup: MIC95 of `GENTAMICIN`
1

# lookup: MIC95 of `H-AARIILRYRFR-NH2`
4

# lookup: MIC95 of POLYMYXIN B
32

# lookup: MIC95 of `H-AARRILRWIFR-NH2`
4

----------
tested on: Staphylococcus aureus; assay: Antibacterial activity against Staphylococcus aureus ATCC 29213 measured after 18 to 24 hrs in presence of MgCl2; format: functional
As shown below, each of these substances has a reported MIC95 value.
Answer with a number only, understood to be in µM.

The cases that follow already have their MIC95 on record.
[[record]]
substance = "H-AARIILRARFR-NH2"
assay_target = "Staphylococcus aureus"
reported = 8

[[record]]
substance = "GENTAMICIN"
assay_target = "Staphylococcus aureus"
reported = 1

[[record]]
substance = "POLYMYXIN B"
assay_target = "Staphylococcus aureus"
reported = 32

[[record]]
substance = "H-AARIILRLRFR-NH2"
assay_target = "Staphylococcus aureus"
reported = 2

[[record]]
substance = "H-AARIILRRRFR-NH2"
assay_target = "Staphylococcus aureus"
reported = 32

[[record]]
substance = "H-AARIILRFRFR-NH2"
assay_target = "Staphylococcus aureus"
reported = 2


Now consider the entry below.
Return MIC95 measured with Staphylococcus aureus given this substance: `H-AARIILRWFRR-NH2`
4

----------
system: Candida parapsilosis; experiment: Fungicidal activity against Candida parapsilosis cgmcc2.3989 incubated for 48 hrs followed by replating on YM agar plate and measured after 48 hrs; assay type: functional
As shown below, each of these substances has a reported MFC<=99.9 value.
Answer with a number only, understood to be in µM.

[[record]]
substance = "H-AARIILRRRFR-NH2"
value_type = "MFC<=99.9"
reported = 128

[[record]]
substance = "H-AARIILRIRFR-NH2"
value_type = "MFC<=99.9"
reported = 8

[[record]]
substance = "H-AARIILRARFR-NH2"
value_type = "MFC<=99.9"
reported = 16

[[record]]
substance = "H-AARIILRFRFR-NH2"
value_type = "MFC<=99.9"
reported = 8

[[record]]
substance = "H-AARIILRWRFR-NH2"
value_type = "MFC<=99.9"
reported = 8


Now consider the entry below.
# lookup: MFC<=99.9 of POLYMYXIN B
16

----------
As shown below, each of these substances has a reported MIC95 value.
system: Staphylococcus aureus; test: Antibacterial activity against methicillin-resistant Staphylococcus aureus ATCC 43300 measured after 24 hrs; assay type: functional; settings: ATCC 43300, 24 h
Answer with a number only, understood to be in µM.

[[record]]
substance = "H-AARIILRARFR-NH2"
unit_tag = "µM"
reported = 2


# lookup: MIC95 of `H-AARIILRFRFR-NH2`
2

# lookup: MIC95 of `H-AARRILRWIFR-NH2`
8

# lookup: MIC95 of `H-AARIILRWFRR-NH2`
8

----------
As shown below, each of these substances has a reported selectivity ratio value.
test: Therapeutic index, ratio of MHC10 for hemolytic activity in human RBC to MIC95 against Candida parapsilosis cgmcc2.3989; format: toxicity; conditions: human red blood cells (erythrocytes), read-out: TI
Answer with a number only.

# lookup: selectivity ratio of `H-AARRILRWIFR-NH2`
40.3

----------
experiment: Therapeutic index, ratio of MHC10 for hemolytic activity in human RBC to MIC95 against Staphylococcus aureus ATCC 25923; assay type: toxicity; conditions: human red blood cells (erythrocytes), read-out: TI
As shown below, each of these substances has a reported selectivity ratio value.
Answer with a number only.

The cases that follow already have their selectivity ratio on record.
[[record]]
substance = "H-AARRILRWIFR-NH2"
reported = 45.2

[[record]]
substance = "H-AARIILRWFRR-NH2"
reported = 53.8


# lookup: selectivity ratio of `H-AARIILRTRFR-NH2`
16

# lookup: selectivity ratio of `H-AARIILRIRFR-NH2`
64

# lookup: selectivity ratio of `H-AARIILRLRFR-NH2`
128

# lookup: selectivity ratio of `H-AARIILRNRFR-NH2`
2

# lookup: selectivity ratio of `H-AARIILRFRFR-NH2`
128

# lookup: selectivity ratio of `H-AARIILRGRFR-NH2`
26.9

# lookup: selectivity ratio of `H-AARIILRWRFR-NH2`
215

# lookup: selectivity ratio of `H-AARIILRYRFR-NH2`
64

# lookup: selectivity ratio of `H-AAKIILNPKFR-NH2`
2

# lookup: selectivity ratio of `H-AARIILRARFR-NH2`
90.5

# lookup: selectivity ratio of `H-AARIILRPRFR-NH2`
2

# lookup: selectivity ratio of `H-AARIILRRRFR-NH2`
13.4

----------
tested on: Candida tropicalis; assay: Fungicidal activity against Candida tropicalis cgmcc2.1975 incubated for 48 hrs followed by replating on YM agar plate and measured after 48 hrs; type: functional
As shown below, each of these substances has a reported MFC<=99.9 value.
Answer with a number only, understood to be in µM.

The cases that follow already have their MFC<=99.9 on record.
[[record]]
substance = "H-AARIILRYRFR-NH2"
assay_target = "Candida tropicalis"
unit_tag = "µM"
reported = 32

[[record]]
substance = "H-AARIILRWRFR-NH2"
assay_target = "Candida tropicalis"
unit_tag = "µM"
reported = 4

[[record]]
substance = "H-AARIILRARFR-NH2"
assay_target = "Candida tropicalis"
unit_tag = "µM"
reported = 4


# lookup: MFC<=99.9 of `H-AARIILRWFRR-NH2`
4

# lookup: MFC<=99.9 of `H-AARIILRRRFR-NH2`
128

Data credit: ChEMBL document CHEMBL4350958
